Taken from patent US20090018106A1.

test method notes: Single intravenous dose escalation of P5P, plasma pharmacokinetics (Examples Two and Three)
Type: in vivo, human
settings: both sexes, human, plasma, iv, 20 mg/kg, Group 4, P5P 20 mg/kg single iv; plasma PA; mean; read-out: T½ (converted)
property measured: half-life (h)
One number for each entry, in h.

Data request: # query: half-life of entry Cc1ncc(CO)c(C(=O)O)c1O
Data returned: 3.48

* * *

test method notes: Single intravenous dose escalation of P5P, plasma pharmacokinetics (Examples Two and Three)
Type: in vivo, human
settings: both sexes, human, plasma, iv, 10 mg/kg, P5P 10 mg/kg single iv bolus, fasting
property measured: Tmax (min)
Numbers only, in min.

Data request: # query: Tmax of entry Cc1ncc(COP(=O)(O)O)c(C=O)c1O [P5P, Pyridoxal 5′-phosphate, reference compound]
Data returned: 6
